Measurement Target: Vasopressin V1 receptor (Rattus norvegicus, UniProt P48974+P30560)
Test Method Notes: Compound was evaluated for its dissociation constant (Kd) to rat liver Vasopressin V1 receptor
Measurement Kind: Kd (nM)

Dear colleague, please send me the reported Kd for CC[C@H](C)[C@@H]1NC(=O)[C@@H]2c3[nH]c4ccccc4c3CCN2C(=O)CCSSC[C@H](C(=O)N(C)CC(=O)N[C@@H](CCCN=C(N)N)C(=O)NCC(N)=O)NC(=O)[C@H](CC(N)=O)NC(=O)[C@H](CCC(N)=O)NC1=O (single isomer, unassigned) when you can.
63.5

(a) CC[C@H](C)[C@@H]1NC(=O)[C@@H]2c3[nH]c4ccccc4c3CCN2C(=O)CCSSC[C@H](C(=O)N(C)CC(=O)N[C@@H](CCCN=C(N)N)C(=O)NCC(N)=O)NC(=O)[C@H](CC(N)=O)NC(=O)[C@H](CCC(N)=O)NC1=O
(b) CC[C@H](C)[C@@H]1NC(=O)[C@@H](Cc2c[nH]c3ccccc23)NC(=O)CCSSC[C@@H](C(=O)N(C)CC(=O)N[C@@H](CCCNC(=N)N)C(=O)NCC(N)=O)NC(=O)[C@H](CC(N)=O)NC(=O)[C@H](CCC(N)=O)NC1=O
# query: argmin of Kd over a and b Pick one and reply with its label.
a
(a: 17.8 nM, b: 888 nM)

Data origin: ChEMBL document CHEMBL1132683
